Numbers sourced from patent US9469611B2.

- PROCEDURE_SUMMARY: plasma concentration of AWD 131-138 (HPLC/mass spectrometry)
- Assay type: in vivo, dog
- EXPERIMENTAL_PARAMETERS: dog, plasma, po, newly diagnosed dogs, three weeks, 2 hours after oral application; read-out: AWD 131-138 plasma concentration, median
REPORTED_ENDPOINT: concentration at 2 h

Recorded concentration at 2 h (compound O=C1N=C(N2CCOCC2)CN1c1ccc(Cl)cc1 [AWD 131-138] ): 2.58 µg/mL

====

- PROCEDURE_SUMMARY: plasma concentration of AWD 131-138 (HPLC/mass spectrometry)
- Type: in vivo, dog
- EXPERIMENTAL_PARAMETERS: dog, plasma, oral, chronic epilepsy add on, 2 hours after application; read-out: AWD 131-138 plasma concentration, mean
- Protocol: A pharmacokinetic study was performed at the beginning of treatment in 2 dogs with AWD 131-138 monotherapy and in 4 dogs with a combination therapy of AWD 131-138 and phenobarbital or primidone. All 6 dogs received 5 mg/kg bodyweight AWD 131-138. Blood was taken 3 times every 2 hours. […] In six dogs entering the pilot study with AWD 131-138 a pharmacokinetic study was performed. AWD 131-138 was measured in plasma samples two, four and six hours after application. […]
REPORTED_ENDPOINT: concentration at 2 h (ng/mL)
State just the number; it will be interpreted in ng/mL.

Recorded concentration at 2 h (compound O=C1N=C(N2CCOCC2)CN1c1ccc(Cl)cc1 [AWD 131-138] ): 3900

====

- PROCEDURE_SUMMARY: plasma concentration of AWD 131-138 (HPLC/mass spectrometry)
- Format: in vivo, dog
- EXPERIMENTAL_PARAMETERS: dog, plasma, oral, newly diagnosed dogs, three weeks of treatment, 2 hours after oral application, 10-20 mg/kg twice a day, eleven cases; read-out: AWD 131-138 plasma concentration, range
REPORTED_ENDPOINT: concentration at 2 h

Recorded concentration at 2 h (compound `O=C1N=C(N2CCOCC2)CN1c1ccc(Cl)cc1` ): 53.3 to 8620 ng/mL

====

- PROCEDURE_SUMMARY: plasma concentration of AWD 131-138 (HPLC/mass spectrometry)
- Type: in vivo, dog
- EXPERIMENTAL_PARAMETERS: dog, plasma, oral, chronic epilepsy add on, 12 hours after application; read-out: AWD 131-138 plasma concentration, range
REPORTED_ENDPOINT: concentration at 12 h

Recorded concentration at 12 h (compound O=C1N=C(N2CCOCC2)CN1c1ccc(Cl)cc1 [AWD 131-138] ): 7.57 to 5870 ng/mL

====

- PROCEDURE_SUMMARY: plasma concentration of AWD 131-138 (HPLC/mass spectrometry)
- Format: in vivo, dog
- EXPERIMENTAL_PARAMETERS: dog, plasma, oral, 5 mg/kg bodyweight, 6 hours after 5 mg/kg p.o.; phenobarbital combination therapy; individual dogs
REPORTED_ENDPOINT: concentration at 6 h (ng/mL)
State just the number; it will be interpreted in ng/mL.

Recorded concentration at 6 h (molecule `O=C1N=C(N2CCOCC2)CN1c1ccc(Cl)cc1` ): 19.5

====

- PROCEDURE_SUMMARY: plasma concentration of AWD 131-138 (HPLC/mass spectrometry)
- Type: in vivo, dog
- EXPERIMENTAL_PARAMETERS: dog, plasma, oral, 40 mg/kg/day, 2 hours after application, 40 mg/kg per day, two dogs with ataxia on combined phenobarbital treatment; read-out: AWD 131-138 plasma concentration, range
REPORTED_ENDPOINT: concentration at 2 h

Recorded concentration at 2 h (molecule `O=C1N=C(N2CCOCC2)CN1c1ccc(Cl)cc1` ): 5560 to 10900 ng/mL

====

- PROCEDURE_SUMMARY: plasma concentration of AWD 131-138 (HPLC/mass spectrometry)
- Assay type: in vivo, dog
- EXPERIMENTAL_PARAMETERS: dog, plasma, oral, chronic epilepsy add on, 12 hours after application; read-out: AWD 131-138 plasma concentration, mean
REPORTED_ENDPOINT: concentration at 12 h (ng/mL)
State just the number; it will be interpreted in ng/mL.

Recorded concentration at 12 h (compound `O=C1N=C(N2CCOCC2)CN1c1ccc(Cl)cc1` ): 644

====

- PROCEDURE_SUMMARY: plasma concentration of AWD 131-138 (HPLC/mass spectrometry)
- Format: in vivo, dog
- EXPERIMENTAL_PARAMETERS: dog, plasma, oral, newly diagnosed dogs, three weeks, 12 hours after application, twelve dogs; read-out: AWD 131-138 plasma concentration, range
- Method: A pharmacokinetic study was performed at the beginning of treatment in 2 dogs with AWD 131-138 monotherapy and in 4 dogs with a combination therapy of AWD 131-138 and phenobarbital or primidone. All 6 dogs received 5 mg/kg bodyweight AWD 131-138. Blood was taken 3 times every 2 hours. […] In six dogs entering the pilot study with AWD 131-138 a pharmacokinetic study was performed. AWD 131-138 was measured in plasma samples two, four and six hours after application. […]
REPORTED_ENDPOINT: concentration at 12 h

Recorded concentration at 12 h (compound `O=C1N=C(N2CCOCC2)CN1c1ccc(Cl)cc1` ): 5.4 to 1140 ng/mL

====

- PROCEDURE_SUMMARY: plasma concentration of AWD 131-138 (HPLC/mass spectrometry)
- Type: in vivo, dog
- EXPERIMENTAL_PARAMETERS: dog, plasma, oral, newly diagnosed dogs, three weeks, 12 hours after application; read-out: AWD 131-138 plasma concentration, mean
REPORTED_ENDPOINT: concentration at 12 h (ng/mL)
State just the number; it will be interpreted in ng/mL.

Recorded concentration at 12 h (compound `O=C1N=C(N2CCOCC2)CN1c1ccc(Cl)cc1` ): 378
